Entries and their CD50 (mg/kg) Peptide
# Test system: S. aureus (Smith)
# run_description: mouse protection test, CD50 (Table III)
# Assay type: in vivo
# run_parameters: mice infected i.p. with S. aureus (Smith); dosed subcutaneously; 7 days survival; peptide alone
quantity_measured: CD50 (mg/kg) Peptide

molecule="Br.C[C@H](N)C(=O)N[C@H](CF)C(=O)O [Example 1, L-alanyl-β-fluoro-D-alanine hydrobromide]" system_name="S. aureus (Smith)" unit_of_measurement=mg/kg assay_result=9.2
molecule="CCCCCCC(N)C(=O)N[C@H](CF)C(=O)O (stereo partly drawn) [Example 20, D,L-α-amino-octanoyl-βF-D-Ala]" system_name="S. aureus (Smith)" unit_of_measurement=mg/kg assay_result=75.9
molecule="C[C@H](N)C(=O)N[C@H](CCl)C(=O)O [Example 2, L-alanyl-β-chloro-D-alanine]" system_name="S. aureus (Smith)" unit_of_measurement=mg/kg assay_result=170
molecule="COC(=O)[C@@H](CF)NC(=O)[C@H](C)N.Cl [Example 15, L-Ala-βF-D-Ala-OMe.HCl]" system_name="S. aureus (Smith)" unit_of_measurement=mg/kg assay_result=18
molecule="NCC(=O)N[C@H](CCl)C(=O)O [Example 12, Gly-βCl-D-Ala]" system_name="S. aureus (Smith)" unit_of_measurement=mg/kg assay_result=155
molecule="O=C(N[C@H](CF)C(=O)O)[C@@H]1CCCN1 [Example 7, L-Pro-βF-D-Ala]" system_name="S. aureus (Smith)" unit_of_measurement=mg/kg assay_result=12.2
molecule="NCC(=O)N[C@H](CF)C(=O)O [Example 10, Gly-βF-D-Ala]" system_name="S. aureus (Smith)" unit_of_measurement=mg/kg assay_result=19
molecule="CC(C)[C@H](N)C(=O)N[C@H](CF)C(=O)O [Example 3, L-Val-βF-D-Ala]" system_name="S. aureus (Smith)" unit_of_measurement=mg/kg assay_result=10
molecule="CCC(N)C(=O)N[C@H](CF)C(=O)O (stereo partly drawn) [Example 17, L-αNH2 -But-βF-D-Ala]" system_name="S. aureus (Smith)" unit_of_measurement=mg/kg assay_result=13.7
molecule="CC(C)C[C@H](N)C(=O)N[C@H](CF)C(=O)O [Example 4, L-Leu-βF-D-Ala]" system_name="S. aureus (Smith)" unit_of_measurement=mg/kg assay_result=7.4
molecule="N[C@@H](CCC(=O)O)C(=O)N[C@H](CF)C(=O)O [Example 9, L-Glu-βF-D-Ala]" system_name="S. aureus (Smith)" unit_of_measurement=mg/kg assay_result=28.5
molecule="N[C@@H](Cc1ccccc1)C(=O)N[C@H](CF)C(=O)O [Example 5, L-Phe-βF-D-Ala]" system_name="S. aureus (Smith)" unit_of_measurement=mg/kg assay_result=14.4
molecule="N[C@@H](CO)C(=O)N[C@H](CF)C(=O)O [Example 8, L-Ser-βF-D-Ala]" system_name="S. aureus (Smith)" unit_of_measurement=mg/kg assay_result=48
molecule="CNCC(=O)N[C@H](CF)C(=O)O [Example 11, Sar-βF-D-Ala]" system_name="S. aureus (Smith)" unit_of_measurement=mg/kg assay_result=29

The reported measurements were obtained from patent US4264590A.
